Test system: Acinetobacter baumannii ABA19-1
Assay type: cell-based
Settings: ABA19-1
Bridge positions count the residues as written; N and C are the ends. Square brackets hold non-standard residues; d marks the D form. Peptide text beside a SMILES is read from it. * marks the point of attachment. dOrn = NCCC[C@@H](N)C(=O)O; Nonanoyl = CCCCCCCCC(=O)*; Octanoyl = CCCCCCCC(=O)*; Orn = NCCC[C@H](N)C(=O)O; Dab = NCC[C@H](N)C(=O)O
# key: entry, value: MIC
readout.label: MIC (µg/mL)

molecule="CCCCCCCC(=O)N[C@@H](CCN)C(=O)N[C@H](C(=O)N[C@H](CCCN)C(=O)N[C@H]1CCNC(=O)[C@H]([C@@H](C)O)NC(=O)[C@H](CCN)NC(=O)[C@H](CCN)NC(=O)[C@H](CC(C)C)NC(=O)[C@@H](Cc2ccccc2)NC(=O)[C@H](CCN)NC1=O)[C@@H](C)O [Compound 43] (Octanoyl-[Dab]T[dOrn][Dab][Dab][dF]L[Dab][Dab]T; lactam 4-C)" readout_value=0.125
molecule="CCCCCCCCC(=O)N[C@@H](CCN)C(=O)N[C@H](C(=O)N[C@@H](CCCN)C(=O)N[C@H]1CCNC(=O)[C@H]([C@@H](C)O)NC(=O)[C@H](CCN)NC(=O)[C@H](CCN)NC(=O)[C@H]([C@@H](C)O)NC(=O)[C@@H](Cc2ccccc2)NC(=O)[C@H](CCN)NC1=O)[C@@H](C)O [Compound 30] (Nonanoyl-[Dab]T[Orn][Dab][Dab][dF]T[Dab][Dab]T; lactam 4-C)" readout_value=0.125

* * *

Assay: Nephrotoxicity assay: in vitro cytotoxicity of HK-2 cells by CCK-8 assay
Format: cell-based
Settings: human, HK-2 cells (human renal), 72 h incubation with drug-containing medium
Bridge positions count the residues as written; N and C are the ends. Square brackets hold non-standard residues; d marks the D form. Peptide text beside a SMILES is read from it. * marks the point of attachment. dOrn = NCCC[C@@H](N)C(=O)O; Heptanoyl = CCCCCCC(=O)*; Orn = NCCC[C@H](N)C(=O)O; Dab = NCC[C@H](N)C(=O)O; Dap = NC[C@H](N)C(=O)O
# key: entry, value: IC50 at 72 h
readout.label: IC50 at 72 h

compound="CCCCCCC(=O)N[C@@H](CCN)C(=O)N[C@H](C(=O)N[C@H](CCCN)C(=O)N[C@H]1CCNC(=O)[C@H]([C@@H](C)O)NC(=O)[C@H](CCN)NC(=O)[C@H](CCN)NC(=O)[C@H]([C@@H](C)O)NC(=O)[C@@H](Cc2ccccc2)NC(=O)[C@H](CCN)NC1=O)[C@@H](C)O [Compound 24] (Heptanoyl-[Dab]T[dOrn][Dab][Dab][dF]T[Dab][Dab]T; lactam 4-C)" readout_value="> 500 µg/mL"
compound="CCCCCCC(=O)N[C@@H](CCN)C(=O)N[C@H](C(=O)N[C@H](CO)C(=O)N[C@H]1CCNC(=O)[C@H]([C@@H](C)O)NC(=O)[C@H](CCN)NC(=O)[C@H](CCCN)NC(=O)[C@H]([C@@H](C)O)NC(=O)[C@@H](Cc2ccccc2)NC(=O)[C@H](CCN)NC1=O)[C@@H](C)O [Compound 79] (Heptanoyl-[Dab]T[dS][Dab][Dab][dF]T[Orn][Dab]T; lactam 4-C)" readout_value="> 500 µg/mL"
compound="CCCCCCC(=O)N[C@@H](CN)C(=O)N[C@H](C(=O)N[C@H](CO)C(=O)N[C@H]1CCNC(=O)[C@H]([C@@H](C)O)NC(=O)[C@H](CCN)NC(=O)[C@H](CCN)NC(=O)[C@H]([C@@H](C)O)NC(=O)[C@@H](Cc2ccccc2)NC(=O)[C@H](CCN)NC1=O)[C@@H](C)O [Compound 54] (Heptanoyl-[Dap]T[dS][Dab][Dab][dF]T[Dab][Dab]T; lactam 4-C)" readout_value="> 500 µg/mL"
